Assign IC50 to each entry below.
- Tested on: Hep G2-A16-CD81 cells
- MEASUREMENT DESCRIPTION: Hep G2 cellular toxicity counter-screen (CellTiterGlo)
- Type: cell-based
- CONDITION PARAMETERS: HepG2-A16-CD81, no sporozoites, ± SE, read-out: Activity against Hep G cells
Answers are plain numbers, in µM.

[[record]]
molecule = "C[n+]1c2ccccc2cc2[n-]c3ccc(I)cc3c21 [Compound 5, 7-iodocryptolepine]"
endpoint_name = "IC50"
meas_value = 6.7

[[record]]
molecule = "C[n+]1c2ccccc2cc2[n-]c3c(Br)cc(Br)cc3c21 [Compound 4, 7,9-Dibromocryptolepine]"
endpoint_name = "IC50"
meas_value = 6.79

[[record]]
molecule = "Cn1c2c3cc(Br)ccc3nc-2cc2cc(Br)ccc21 [Compound 2, 2,7-dibromocryptolepine]"
endpoint_name = "IC50"
meas_value = 4.94


We now examine a further molecule.
Summary for this molecule, C[n+]1c2ccccc2cc2[n-]c3c(I)cc(I)cc3c21 [Compound 6, 7,9-diiodocryptolepine] : IC50 is 28.2
